target: Adenosine receptor A3 (Homo sapiens, UniProt P0DMS8); experiment: Displacement of [3H]PSB-11 from human adenosine A3 receptor expressed in CHO cell membranes
Sequence (P0DMS8 whole entry): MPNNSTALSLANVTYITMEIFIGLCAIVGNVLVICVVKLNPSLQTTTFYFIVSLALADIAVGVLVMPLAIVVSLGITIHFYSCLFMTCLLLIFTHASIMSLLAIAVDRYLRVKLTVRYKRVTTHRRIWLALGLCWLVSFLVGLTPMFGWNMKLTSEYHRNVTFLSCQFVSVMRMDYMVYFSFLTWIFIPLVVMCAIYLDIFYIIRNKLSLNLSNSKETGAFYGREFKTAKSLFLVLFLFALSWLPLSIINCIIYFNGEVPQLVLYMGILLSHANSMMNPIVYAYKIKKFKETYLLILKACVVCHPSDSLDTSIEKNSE
Consider the following compounds; for each one, report its Ki.

query: What value of Ki has been reported for the following compound? CCCn1c(=O)c2c(nc3n2CCCN3CCc2ccc(OCC(=O)NCCCN(CC)CC)cc2)n(CCC)c1=O
result: > 1000 nM

query: Fill in: Ki of CCCn1c(=O)c2c(nc3n2CCCN3CCc2ccc(OCC(=O)NCCN(CC)CC)cc2)n(CCC)c1=O is ___
result: 508 nM

query: Could you tell me which Ki is on file for CCCn1c(=O)c2c(nc3n2CCCN3CCc2ccc(OCC(=O)NCc3cccc(Cl)c3)cc2)n(CCC)c1=O ?
result: 572 nM

Cited source for all entries: ChEMBL document CHEMBL4257504
